B1: CPEB3 Ribozyme (parent)
chain: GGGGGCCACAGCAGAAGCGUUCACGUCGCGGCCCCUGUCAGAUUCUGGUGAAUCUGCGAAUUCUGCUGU

- Variants of: B1
- ASSAY_METHOD_TEXT: self-cleavage, relative activity (ratio to wild type); higher = more cleavage; co-transcriptional
MEASURED_QUANTITY: self-cleavage
No unit in the answer, only the number.

Value of self-cleavage reported for the variant GGGGGCCACAGCAUAAGCGUUCACGUCGCGGCCCCUGUCAGAUUCUGGUGAAUCUGCGAAUGCUGCUGU is 0.513

Value of self-cleavage reported for the variant GGGGGCCACAGCAGAAGAGUUCACGUCGCGGCCCCUGUCAGAUUCUGGUGAAUCUGCGAAUUCUUCUGU is 0.102

Value of self-cleavage reported for the variant GGGGGUCACAGCAGAAGCGUUCACGUCGCGGCCCCUGUCAGAUUCUGGUGAAUCUGCGAAAUCUGCUGU is 0.736

Value of self-cleavage reported for the variant GGGGGCCACAGCAGAAGCGUUCACGUCGCGGCCCCUGUCAGAUUCUGAUGAAUCUCCGAAUUCUGCUGU is 0.949

Value of self-cleavage reported for the variant GGGGGCCACAGCAGAAGUGUUCACGUCGCGGCCCCUGUCAGAUUCUGGUGAAUCUGCGAAGUCUGCUGU is 0.312

Value of self-cleavage reported for the variant GGGGGCCACAGCAGAAGCCUUCACGUCGCGGCCCCUGUCAGAUUCUGGUGAAUCUGCGAACUCUGCUGU is 0.161

Value of self-cleavage reported for the variant GGGGGCCACAGCAGAAGCGUUCACGUCGUGGCCCCUGUCAGAUUCUGGCGAAUCUGCGAAUUCUGCUGU is 0.411

Value of self-cleavage reported for the variant GGGGGCCACAGCAGAAGCGUUCACGUCGCGGCCCCUGUCAGAUUCGGGUGAAUCUGCGAAGUCUGCUGU is 0.878

Value of self-cleavage reported for the variant GGGGGCCACAACAGAAGCGUUCACGUCGCGGCCCCUGUCAGAUUCUGGUUAAUCUGCGAAUUCUGCUGU is 0.927

Value of self-cleavage reported for the variant GGGGGCCACAGCAGAAGCGUUCCCGUCGCGCCCCCUGUCAGAUUCUGGUGAAUCUGCGAAUUCUGCUGU is 0.186

Value of self-cleavage reported for the variant GGACGCCACAGCAGAAGCGUUCACGUCGCGGCCCCUGUCAGAUUCUGGUGAAUCUGCGAAUUCUGCUGU is 0.165

Value of self-cleavage reported for the variant UGGUGCCACAGCAGAAGCGUUCACGUCGCGGCCCCUGUCAGAUUCUGGUGAAUCUGCGAAUUCUGCUGU is 0.127

Data provenance: the RNAGym collection of RNA variant scans (doi:10.7554/elife.80360)
